// provenance: patent EP2669276A1

biological target: hNPFF1 (Homo sapiens, UniProt Q9GZQ6); construct: The cDNA encoding the full-length human NPFFR1 and human NPFFR2; expressed in transfected cells; test: Receptor binding assay with [3H]-FFRFamide on CHO cell membranes expressing SF-hNPFFR1; settings: 5 µM; [3H]-FFRF-NH2 radioligand; mean of at least two experiments
Sequence (Q9GZQ6 whole entry): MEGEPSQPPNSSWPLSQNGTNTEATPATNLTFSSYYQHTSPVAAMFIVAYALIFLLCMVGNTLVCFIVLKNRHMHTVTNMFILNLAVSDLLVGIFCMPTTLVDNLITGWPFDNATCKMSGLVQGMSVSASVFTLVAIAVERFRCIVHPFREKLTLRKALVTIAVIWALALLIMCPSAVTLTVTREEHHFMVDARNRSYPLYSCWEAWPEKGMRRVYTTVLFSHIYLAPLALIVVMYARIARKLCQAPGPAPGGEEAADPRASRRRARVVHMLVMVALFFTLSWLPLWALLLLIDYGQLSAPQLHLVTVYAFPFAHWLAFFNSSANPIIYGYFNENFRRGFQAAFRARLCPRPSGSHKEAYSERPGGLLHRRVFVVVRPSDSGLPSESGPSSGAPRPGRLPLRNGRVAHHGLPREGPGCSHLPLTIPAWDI
Each entry gets not fulfilled if its inhibition at 5 µM stays under 50%, and fulfilled if its inhibition at 5 µM is 50% or above.

O=C(N[C@@H](CCCN1CCC(Cc2ccccc2)CC1)C(=O)NCCc1ccccc1)c1ccccc1Cl [Compound 41]
fulfilled
CC(C)CNCCC[C@H](NC(=O)c1ccccc1-c1ccccc1)C(=O)NCCc1ccccc1 [Compound 4]
not fulfilled
O=C(N[C@@H](CCCNCCc1ccccc1)C(=O)NCCc1ccccc1)c1ccccc1-c1ccccc1 [Compound 3]
fulfilled
O=C(N[C@@H](CCCN1CCOCC1)C(=O)NCCc1ccccc1)c1ccccc1-c1ccccc1 [Compound 36]
not fulfilled

Input: Quick check: does O=C(N[C@@H](CCCN1CCC(Cc2ccccc2)CC1)C(=O)NCCc1ccccc1)c1ccc2ccccc2n1 [Compound 42] have inhibition at 5 µM greater than or equal to 50%?
Output: fulfilled

Input: Threshold query (inhibition at 5 µM >= 50%) on COc1ccc(CN(C)CCC[C@H](NC(=O)c2ccccc2-c2ccccc2)C(=O)NCCc2ccccc2)cc1 [Compound 21]
Output: fulfilled

----------
Molecular target: hNPFF2 (Homo sapiens, UniProt Q9Y5X5)
Construct: The cDNA encoding the full-length human NPFFR1 and human NPFFR2; expressed in transfected cells
Sequence (Q9Y5X5 whole entry): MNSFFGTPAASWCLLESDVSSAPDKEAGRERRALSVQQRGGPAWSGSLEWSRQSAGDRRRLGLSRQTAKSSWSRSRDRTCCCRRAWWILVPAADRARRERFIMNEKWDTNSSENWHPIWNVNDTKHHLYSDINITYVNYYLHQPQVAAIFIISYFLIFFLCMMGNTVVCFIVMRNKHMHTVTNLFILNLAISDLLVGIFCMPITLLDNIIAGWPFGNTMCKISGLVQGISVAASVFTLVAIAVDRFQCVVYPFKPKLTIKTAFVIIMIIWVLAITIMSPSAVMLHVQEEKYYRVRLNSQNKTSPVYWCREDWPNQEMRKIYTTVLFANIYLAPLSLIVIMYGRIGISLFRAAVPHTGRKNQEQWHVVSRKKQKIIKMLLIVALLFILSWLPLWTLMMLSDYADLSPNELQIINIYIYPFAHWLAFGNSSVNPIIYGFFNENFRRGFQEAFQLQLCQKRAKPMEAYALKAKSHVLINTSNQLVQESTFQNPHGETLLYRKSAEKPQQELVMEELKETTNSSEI
Assay: Receptor binding assay with [3H]-FFRFamide on CHO cell membranes expressing SF-hNPFFR2
Conditions: 0.5 µM; [3H]-FFRF-NH2 radioligand; mean of at least two experiments
Experimental: The cDNA encoding the full-length human NPFFR1 and human NPFFR2 were subcloned into the pcDNA3 expression vector (Invitrogen, Cergy Pontoise, France) using standard molecular biology methods. […] Membranes from CHO cells stably expressing SF-hNPFFR1 or SF-hNPFFR2 were prepared as described (Becker et al., 1999). […] Non-specific binding was determined in presence of 1 µM neuropeptide FF for SF-hNPFFR2 and 1 µM neuropeptide VF for SF -hNPFFR1. […]
reported-metric: inhibition at 0.5 µM
Could you write the number and then its unit?

Sample records with inhibition at 0.5 µM:
O=C(N[C@@H](CCCNCc1ccccc1Cl)C(=O)NCCc1ccccc1)c1ccccc1-c1ccccc1 [Compound 12]
25%
CN(CCC[C@H](NC(=O)c1ccccc1-c1ccccc1)C(=O)NCCc1ccccc1)Cc1ccc(Cl)cc1 [Compound 20]
11%

Input: Can you look up the measured inhibition at 0.5 µM of O=C(N[C@@H](CCCN1CCC(Cc2ccccc2)CC1)C(=O)NCCc1ccccc1)c1ccccc1Cl [Compound 41] for me?
Output: 0%

----------
target: hNPFF2 (Homo sapiens); construct: The cDNA encoding the full-length human NPFFR1 and human NPFFR2; expressed in transfected cells; assay: Receptor binding assay with [3H]-FFRFamide on CHO cell membranes expressing SF-hNPFFR2; conditions: 5 µM; [3H]-FFRF-NH2 radioligand; mean of at least two experiments
Decide by inhibition at 5 µM: equal to or exceeding 40% means true, less means false.

Input: Assess whether reported inhibition at 5 µM for CN(CCC[C@H](NC(=O)c1ccccc1-c1ccccc1)C(=O)NCCc1ccccc1)CCc1ccccc1 sits at 40% or higher.
Output: false

Input: Threshold query (inhibition at 5 µM >= 40%) on O=C(N[C@@H](CCCNCc1cccc(Cl)c1)C(=O)NCCc1ccccc1)c1ccccc1-c1ccccc1
Output: true

Input: Answer whether inhibition at 5 µM of O=C(N[C@@H](CCCNCCc1ccccc1)C(=O)NCCc1ccccc1)c1ccccc1-c1ccccc1 is greater than or equal to 40%.
Output: false

Input: Assess whether reported inhibition at 5 µM for O=C(N[C@@H](CCCNCc1ccccc1Cl)C(=O)NCCc1ccccc1)c1ccccc1-c1ccccc1 sits at 40% or higher.
Output: true

Input: State whether the measured inhibition at 5 µM reaches 40%, counting equality as reaching it, for O=C(N[C@@H](CCCN1CCN(C(=O)c2ccccc2)CC1)C(=O)NCCc1ccccc1)c1ccccc1-c1ccccc1
Output: false

Input: Please tell me: is the compound CC(C)CNCCC[C@H](NC(=O)c1ccccc1-c1ccccc1)C(=O)NCCc1ccccc1 at or over 40% in terms of inhibition at 5 µM?
Output: false

Input: Does COc1ccccc1CN(C)CCC[C@H](NC(=O)c1ccccc1-c1ccccc1)C(=O)NCCc1ccccc1 have a reported inhibition at 5 µM of at least 40%?
Output: true

Input: Test whether the compound O=C(N[C@@H](CCCN1CCC(N2C(=O)Cc3ccccc32)CC1)C(=O)NCCc1ccccc1)c1ccccc1-c1ccccc1 records inhibition at 5 µM of 40% or higher.
Output: true

Input: Kindly determine if inhibition at 5 µM recorded for COc1ccc(CN(C)CCC[C@H](NC(=O)c2ccccc2-c2ccccc2)C(=O)NCCc2ccccc2)cc1OC is above or exactly 40%.
Output: true

----------
Readings of Ki for the listed molecules
target: hNPFF2 (Homo sapiens, UniProt Q9Y5X5); construct: The cDNA encoding the full-length human NPFFR1 and human NPFFR2; expressed in transfected cells; experiment: Receptor binding assay with [3H]-FFRFamide on CHO cell membranes expressing SF-hNPFFR2; conditions: [3H]-FFRF-NH2 radioligand; mean of at least two experiments; read-out: Ki NPFF2
Give the value in nM but do not write nM after it.

Reference set (6 entries):
O=C(N[C@H](CCCCNCc1ccccc1)C(=O)NCCc1ccccc1)c1ccccc1-c1ccccc1
605
CN(CCC[C@H](NC(=O)c1ccccc1-c1ccccc1)C(=O)NCCc1ccccc1)C1CCN(Cc2ccccc2)CC1
40
O=C(N[C@H](CCCNCc1ccccc1)C(=O)NCCc1ccccc1)c1ccccc1-c1ccccc1
910
CN(CCc1ccccc1)C(=O)[C@H](CCCNCc1ccccc1)NC(=O)c1ccccc1-c1ccccc1
1300
O=C(N[C@@H](CCCCNCc1ccccc1)C(=O)NCCc1ccccc1)c1ccccc1-c1ccccc1
720
O=C(N[C@@H](CCCN1CCC(Cc2ccccc2)CC1)C(=O)NCCc1ccccc1)c1cccc(Cl)c1
147

Here is another molecule to look at.
Input: Query: Ki; subject: COc1ccccc1CNCCC[C@H](NC(=O)c1ccccc1-c1ccccc1)C(=O)NCCc1ccccc1
Output: 103

----------
biological target: hNPFF2 (Homo sapiens, UniProt Q9Y5X5); construct: The cDNA encoding the full-length human NPFFR1 and human NPFFR2; expressed in transfected cells; assay: Receptor binding assay with [3H]-FFRFamide on CHO cell membranes expressing SF-hNPFFR2; details: 5 µM; [3H]-FFRF-NH2 radioligand; mean of at least two experiments
Outcome: True for inhibition at 5 µM of at least 20%; False for anything lower.

CN(CCC[C@H](NC(=O)c1ccccc1-c1ccccc1)C(=O)NCCc1ccccc1)Cc1cccc(Cl)c1 [Compound 18]
True
O=C(N[C@@H](CCCN1CCCCC1)C(=O)NCCCc1ccccc1)c1ccccc1-c1ccccc1 [Compound 28]
False

Input: Decide: inhibition at 5 µM of O=C(N[C@@H](CCCN1CCC(c2ccccc2)CC1)C(=O)NCCc1ccccc1)c1ccccc1-c1ccccc1 [Compound 31] >= 20%?
Output: True

Input: Could you tell me if the measured inhibition at 5 µM of COc1cccc(CNCCC[C@H](NC(=O)c2ccccc2-c2ccccc2)C(=O)NCCc2ccccc2)c1 [Compound 9] reaches 20% or more?
Output: True

Input: Is reported inhibition at 5 µM greater than or equal to 20% here: CN(CCC[C@H](NC(=O)c1ccccc1-c1ccccc1)C(=O)NCCc1ccccc1)Cc1ccccc1Cl [Compound 19]
Output: True

Input: Decide: inhibition at 5 µM of O=C(N[C@H](CCCN1CCc2ccccc2C1)C(=O)NCCc1ccccc1)c1ccccc1-c1ccccc1 [Compound 25] >= 20%?
Output: False

Input: Test whether the compound O=C(C=C(c1ccccc1)c1ccccc1)N[C@@H](CCCN1CCC(Cc2ccccc2)CC1)C(=O)NCCc1ccccc1 [Compound 45] records inhibition at 5 µM of 20% or higher.
Output: True

Input: For this compound, is measured inhibition at 5 µM 20% or higher? COc1cccc(CN(C)CCC[C@H](NC(=O)c2ccccc2-c2ccccc2)C(=O)NCCc2ccccc2)c1 [Compound 22]
Output: True

Input: Textbook exercise: given the entry CC(=O)N1CCN(CCC[C@H](NC(=O)c2ccccc2-c2ccccc2)C(=O)NCCc2ccccc2)CC1 [Compound 35] , state whether its inhibition at 5 µM is greater than or equal to 20%.
Output: False

Input: Can O=C(N[C@@H](CCCNCc1ccc(Cl)cc1)C(=O)NCCc1ccccc1)c1ccccc1-c1ccccc1 [Compound 14] be said to have inhibition at 5 µM at or above 20%?
Output: True

Input: Can O=C(N[C@H](CCCN1CCCCC1)C(=O)NCCc1ccccc1)c1ccccc1-c1ccccc1 [Compound 27] be said to have inhibition at 5 µM at or above 20%?
Output: False

Input: Is it the case that O=C(N[C@@H](CCCN1CCC(Cc2ccccc2)CC1)C(=O)NCCc1ccccc1)c1ccccc1Cl [Compound 41] has inhibition at 5 µM reaching or exceeding 20%?
Output: True

Input: Would you say COc1ccc(CNCCC[C@H](NC(=O)c2ccccc2-c2ccccc2)C(=O)NCCc2ccccc2)cc1 [Compound 10] shows inhibition at 5 µM at minimum 20%?
Output: True

Input: Confirm if inhibition at 5 µM reported for the compound O=C(N[C@@H](CCCN1CCOCC1)C(=O)NCCc1ccccc1)c1ccccc1-c1ccccc1 [Compound 36] is 20% or above.
Output: True

Input: Say whether CN(CCC[C@H](NC(=O)c1ccccc1-c1ccccc1)C(=O)NCCc1ccccc1)Cc1ccc(Cl)cc1 [Compound 20] shows inhibition at 5 µM of 20% or more.
Output: True

Input: Is it the case that O=C(N[C@@H](CCCN1CCC(N2CCCCC2)CC1)C(=O)NCCc1ccccc1)c1ccccc1-c1ccccc1 [Compound 33] has inhibition at 5 µM reaching or exceeding 20%?
Output: True
